assay: Pharmacokinetic study in rat plasma after oral administration of Flos Chrysanthemi extract (UPLC-MS/MS); assay type: in vivo, Sprague-Dawley rats; details: male, Sprague-Dawley, rat; rats, oral Flos Chrysanthemi extract 10 g/kg, plasma, n = 6; read-out: AUC(0 − tn)
MEASURED PROPERTY: AUC (ng·h/mL)

Ask: Name the recorded AUC for O=C(/C=C/c1ccc(O)c(O)c1)O[C@@H]1[C@H](O)C[C@@](O)(C(=O)O)C[C@H]1OC(=O)/C=C/c1ccc(O)c(O)c1 [Isochlorogenic acid C] .
Result: 309

[P] O=C(O)[C@H]1O[C@@H](Oc2cc(O)c3c(=O)cc(-c4ccc(O)c(O)c4)oc3c2)[C@H](O)[C@@H](O)[C@@H]1O [Luteolin 7-O-glucuronide]
[Q] O=C(/C=C/c1ccc(O)c(O)c1)O[C@@H]1C[C@](O)(C(=O)O)C[C@@H](O)[C@H]1O [Chlorogenic acid]
[R] O=c1cc(-c2ccc(O)cc2)oc2cc(O[C@@H]3O[C@H](CO)[C@@H](O)[C@H](O)[C@H]3O)cc(O)c12 [Apigenin 7-glucoside]
[S] O=c1cc(-c2ccc(O)cc2)oc2cc(O)cc(O)c12 [Apigenin]
[T] O=c1cc(-c2ccc(O)c(O)c2)oc2cc(O)cc(O)c12 [Luteolin]
Ask: List items by AUC in falling order. List the labels according to the requested ordering.
Result: T, P, S, R, Q

[P] O=C(/C=C/c1ccc(O)c(O)c1)O[C@H]1[C@H](O)C[C@](O)(C(=O)O)C[C@H]1O [Cryptochlorogenic acid]
[Q] O=c1cc(-c2ccc(O)c(O)c2)oc2cc(O[C@@H]3O[C@H](CO)[C@@H](O)[C@H](O)[C@H]3O)cc(O)c12 [Cynaroside]
Ask: Hello, I am sorting some records. Could you say if P or Q has the smaller AUC value? When you have decided, please share the label of that item.
Result: P
(P: 319 ng·h/mL, Q: 19100 ng·h/mL)

---

test: Pharmacokinetic study in rat plasma after oral administration of Flos Chrysanthemi extract (UPLC-MS/MS); assay type: in vivo, Sprague-Dawley rats; details: male, Sprague-Dawley, rat; rats, oral Flos Chrysanthemi extract 10 g/kg, plasma, n = 6; read-out: Ke (converted)
MEASURED PROPERTY: k el (s⁻¹)

Ask: Consider the molecule shown here: O=c1cc(-c2ccc(O)c(O)c2)oc2cc(O[C@@H]3O[C@H](CO)[C@@H](O)[C@H](O)[C@H]3O)cc(O)c12 [Cynaroside] What is its recorded k el?
Result: 7.78e-05

Ask: Quick one: k el for O=C(/C=C/c1ccc(O)c(O)c1)O[C@@H]1[C@H](O)C[C@@](O)(C(=O)O)C[C@H]1OC(=O)/C=C/c1ccc(O)c(O)c1 ?
Result: 0.0013

Ask: # lookup: k el of O=c1cc(-c2ccc(O)c(O)c2)oc2cc(O)cc(O)c12
Result: 2.78e-05

[1] O=c1cc(-c2ccc(O)cc2)oc2cc(O[C@@H]3O[C@H](CO)[C@@H](O)[C@H](O)[C@H]3O)cc(O)c12 [Apigenin 7-glucoside]
[2] O=c1cc(-c2ccc(O)cc2)oc2cc(O)cc(O)c12
Ask: Lab log: flag the item ( 1 or 2 ) with the smaller k el figure. Return value: the label identifying the chosen record.
Result: 2
(2: 2.5e-05 s⁻¹, 1: 6.94e-05 s⁻¹)

---

experiment: Stability of analytes in rat plasma (QC samples under four storage conditions); format: in vitro ADME; settings: spiked concentration 1000 ng/mL, n = 6
MEASURED PROPERTY: Measured concentration, Autosampler for 12 h (ng/mL)

Ask: Which Measured concentration, Autosampler for 12 h value is on record for O=C(/C=C/c1ccc(O)c(O)c1)O[C@H]1[C@H](O)C[C@](O)(C(=O)O)C[C@H]1O [Cryptochlorogenic acid] ?
Result: 1069.3

Ask: Data request, read-out Measured concentration, Autosampler for 12 h, for O=C(/C=C/c1ccc(O)c(O)c1)O[C@@H]1C[C@](O)(C(=O)O)C[C@@H](O)[C@H]1O [Chlorogenic acid]
Result: 1084.8

Ask: Fill blank: measured Measured concentration, Autosampler for 12 h of the compound O=c1cc(-c2ccc(O)cc2)oc2cc(O[C@@H]3O[C@H](CO)[C@@H](O)[C@H](O)[C@H]3O)cc(O)c12 [Apigenin 7-glucoside] is ____.
Result: 1077.6

---

test: Pharmacokinetic study in rat plasma after oral administration of Flos Chrysanthemi extract (UPLC-MS/MS); format: in vivo, Sprague-Dawley rats; details: male, Sprague-Dawley, rat; rats, oral Flos Chrysanthemi extract 10 g/kg, plasma, n = 6
MEASURED PROPERTY: Tmax (min)

Recorded Tmax, per entry:
Ask: Which Tmax is listed for O=C(O)[C@H]1O[C@@H](Oc2cc(O)c3c(=O)cc(-c4ccc(O)c(O)c4)oc3c2)[C@H](O)[C@@H](O)[C@@H]1O [Luteolin 7-O-glucuronide] ?
Result: 30

Ask: Item under review: O=C(/C=C/c1ccc(O)c(O)c1)O[C@@H]1[C@H](O)C[C@@](O)(C(=O)O)C[C@H]1OC(=O)/C=C/c1ccc(O)c(O)c1 [Isochlorogenic acid C] . Reported Tmax?
Result: 24

Ask: Quick check: Tmax of O=c1cc(-c2ccc(O)cc2)oc2cc(O)cc(O)c12 [Apigenin] ?
Result: 30

Ask: Fill in the blank: the reported Tmax of O=c1cc(-c2ccc(O)cc2)oc2cc(O[C@@H]3O[C@H](CO)[C@@H](O)[C@H](O)[C@H]3O)cc(O)c12 [Apigenin 7-glucoside] is ____.
Result: 41.4

Ask: Need Tmax of O=C(/C=C/c1ccc(O)c(O)c1)O[C@H]1[C@H](O)C[C@](O)(C(=O)O)C[C@H]1O [Cryptochlorogenic acid] , thanks.
Result: 36.6

[I] O=c1cc(-c2ccc(O)c(O)c2)oc2cc(O)cc(O)c12 [Luteolin]
[II] O=c1cc(-c2ccc(O)c(O)c2)oc2cc(O[C@@H]3O[C@H](CO)[C@@H](O)[C@H](O)[C@H]3O)cc(O)c12 [Cynaroside]
Ask: Lab log: flag the item ( I or II ) with the smaller Tmax figure. In your reply, give the label of the chosen option.
Result: I
(I: 30 min, II: 383 min)

---

assay: Stability of analytes in rat plasma (QC samples under four storage conditions); format: in vitro ADME; conditions: spiked concentration 50 ng/mL, n = 6
MEASURED PROPERTY: Measured concentration, Room temperature for 6 h (ng/mL)

Ask: Sample O=c1cc(-c2ccc(O)cc2)oc2cc(O[C@@H]3O[C@H](CO)[C@@H](O)[C@H](O)[C@H]3O)cc(O)c12 [Apigenin 7-glucoside] — what was its Measured concentration, Room temperature for 6 h?
Result: 50.5

Ask: Look at this compound and give its reported Measured concentration, Room temperature for 6 h. O=c1c(O[C@@H]2O[C@H](CO)[C@H](O)[C@H](O)[C@H]2O)c(-c2ccc(O)c(O)c2)oc2cc(O)cc(O)c12 [Hyperoside]
Result: 48.7

Ask: Requested field: Measured concentration, Room temperature for 6 h. Item: O=c1cc(-c2ccc(O)cc2)oc2cc(O)cc(O)c12
Result: 49.3

Ask: Recorded Measured concentration, Room temperature for 6 h of O=C(/C=C/c1ccc(O)c(O)c1)O[C@@H]1[C@H](O)C[C@@](O)(C(=O)O)C[C@H]1OC(=O)/C=C/c1ccc(O)c(O)c1 , please.
Result: 48.1

Ask: I have this compound here, O=C(/C=C/c1ccc(O)c(O)c1)O[C@@H]1C[C@](O)(C(=O)O)C[C@@H](O)[C@H]1O , and I need its recorded Measured concentration, Room temperature for 6 h.
Result: 49.7

Ask: Can you look up the measured Measured concentration, Room temperature for 6 h of COc1ccc(-c2cc(=O)c3c(O)cc(O)cc3o2)cc1 for me?
Result: 50.3

Ask: Please report the recorded Measured concentration, Room temperature for 6 h for O=C(/C=C/c1ccc(O)c(O)c1)O[C@H]1[C@H](O)C[C@](O)(C(=O)O)C[C@H]1O .
Result: 49.1

---

test: Stability of analytes in rat plasma (QC samples under four storage conditions); format: in vitro ADME; details: spiked concentration 50 ng/mL, n = 6
MEASURED PROPERTY: Measured concentration, Autosampler for 12 h (ng/mL)

Ask: Using the record for O=c1cc(-c2ccc(O)cc2)oc2cc(O)cc(O)c12 [Apigenin] , report its Measured concentration, Autosampler for 12 h.
Result: 45.8

Ask: // lookup Measured concentration, Autosampler for 12 h for O=c1c(O[C@@H]2O[C@H](CO)[C@H](O)[C@H](O)[C@H]2O)c(-c2ccc(O)c(O)c2)oc2cc(O)cc(O)c12 [Hyperoside]
Result: 41.8

Ask: Bench note: what Measured concentration, Autosampler for 12 h did O=C(/C=C/c1ccc(O)c(O)c1)O[C@@H]1[C@H](O)C[C@@](O)(C(=O)O)C[C@H]1OC(=O)/C=C/c1ccc(O)c(O)c1 [Isochlorogenic acid C] show?
Result: 45.1
